Data origin, for the record: ChEMBL document CHEMBL1275427

Provide the reported MIC of each item.
- protocol text: Antimicrobial activity against Leptospira interrogans serovar Bataviae isolate 1 by broth microdilution method
- Assay type: functional
- protocol conditions: Leptospira interrogans, isolate 1; read-out: MIC
Give a bare numeral; the unit µg/mL is implied.

Q) MIC lookup needed for COc1c(N2C[C@@H]3CCCN[C@@H]3C2)c(F)cc2c(=O)c(C(=O)O)cn(C3CC3)c12 , thanks.
A) 0.06

Q) For CO/N=C(\C(=O)N[C@@H]1C(=O)N2C(C(=O)O)=C(CSc3nc(=O)c(O)nn3C)CS[C@H]12)c1csc(N)n1 then?
A) 0.03

Q) What would you report for C[C@H]1COc2c(N3CCN(C)CC3)c(F)cc3c(=O)c(C(=O)O)cn1c23.C[C@H]1COc2c(N3CCN(C)CC3)c(F)cc3c(=O)c(C(=O)O)cn1c23.O ?
A) 0.06
